target: Neu5Ac(a2-6)Gal(b1-4)GlcNAc(b1-2)Man(a1-6)[Gal(b1-4)GlcNAc(b1-2)Man(a1-3)]Man(b1-4)GlcNAc(b1-4)GlcNAc; test: glycan array binding signal (z-score within array); higher = stronger binding; details: glycan notation: IUPAC condensed, linker removed
This excerpt belongs to a sample that is enriched for the strongest signals.

- binder: "RBMC1 (Vibrio cholerae) (protein) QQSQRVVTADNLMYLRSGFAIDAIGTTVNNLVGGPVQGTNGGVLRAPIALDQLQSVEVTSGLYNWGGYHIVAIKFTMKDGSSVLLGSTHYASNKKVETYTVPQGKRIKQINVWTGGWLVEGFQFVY"
  glycan array binding signal (z-score): 3.13
- binder: "CIH1 (Colletotrichum higginsianum) (protein) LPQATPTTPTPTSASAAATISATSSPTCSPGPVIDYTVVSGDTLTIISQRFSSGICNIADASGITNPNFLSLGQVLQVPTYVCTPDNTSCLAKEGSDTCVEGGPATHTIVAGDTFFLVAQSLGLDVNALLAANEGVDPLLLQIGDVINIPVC"
  glycan array binding signal (z-score): -0.069
- binder: "LF82 (Escherichia coli) (protein) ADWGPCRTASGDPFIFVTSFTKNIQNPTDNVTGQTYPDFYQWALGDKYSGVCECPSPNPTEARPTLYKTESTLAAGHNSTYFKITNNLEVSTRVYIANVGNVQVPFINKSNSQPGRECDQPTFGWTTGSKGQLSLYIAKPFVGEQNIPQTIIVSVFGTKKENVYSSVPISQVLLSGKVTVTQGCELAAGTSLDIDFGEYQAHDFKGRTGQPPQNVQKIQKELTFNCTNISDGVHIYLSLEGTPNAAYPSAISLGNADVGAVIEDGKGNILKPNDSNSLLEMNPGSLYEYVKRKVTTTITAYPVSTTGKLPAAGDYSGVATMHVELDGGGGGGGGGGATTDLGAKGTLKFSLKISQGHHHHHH"
  glycan array binding signal (z-score): 0.283
